biological target: KRas^Q61H (Homo sapiens, UniProt P01116, Q61H); construct: Biotinylated KRas (corresponding to amino acids 1-169, produced at Accelegan Inc.); biotin (biotinylated); purchased Accelegan Inc; test: KRas binding assay (TR-FRET tracer displacement), KRas Q61H; conditions: single point, 10 nM compound, TR-FRET
Sequence (P01116 1-169 isoform P01116-2 Q61H): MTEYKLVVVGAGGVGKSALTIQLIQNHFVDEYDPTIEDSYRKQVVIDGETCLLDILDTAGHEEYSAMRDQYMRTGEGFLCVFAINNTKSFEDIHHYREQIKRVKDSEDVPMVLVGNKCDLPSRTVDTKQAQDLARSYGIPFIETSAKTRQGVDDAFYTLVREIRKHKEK
property-label: inhibition at 0.01 µM (%)

1. CCc1c(F)ccc2cc(O)cc(-c3ncc4c(N5CCCCn6nc(C(=O)N7CCOCC7)cc6C5)nc(OC[C@@]56CCCN5C[C@H](F)C6)nc4c3F)c12 [Example 690]
92
2. CCc1c(F)ccc2cc(O)cc(-c3ncc4c(N5C[C@@H]6C[C@H](C5)[C@H](O)[C@@H]6O)nc(OC[C@@]56CCCN5C[C@H](F)C6)nc4c3F)c12 [Example 568]
98
3. CCc1c(F)ccc2cc(O)cc(-c3ncc4c(N5CCC[C@@](C)(O)C5)nc(OC[C@@]56CCCN5[C@H](COC(=O)N5CCCC5)CC6)nc4c3F)c12 [Example 719]
98
4. CCc1c(F)ccc2cc(O)cc(-c3ncc4c(N5CCC[C@]6(C5)C[C@H](O)C6)nc(OC[C@@]56CCCN5[C@H](COC(=O)N(C)C)CC6)nc4c3F)c12 [Example 712]
90
5. CCc1c(F)ccc2cc(O)cc(-c3ncc4c(N5CCC(O)C(F)(F)CC5)nc(OC[C@@]56CCCN5C[C@H](F)C6)nc4c3F)c12 (stereo partly drawn) [Example 586]
90
6. CCc1c(F)ccc2cc(O)cc(-c3ncc4c(N5CCCn6nc(C(=O)N(C)C)cc6C5)nc(OC[C@]56CCCN5[C@H](COC(=O)N(C)C)CC6)nc4c3F)c12 [Example 714]
87
7. CCc1c(F)ccc2cc(O)cc(-c3ncc4c(N5CCCCn6nc(C(=O)N(C)C)cc6C5)nc(OC[C@@]56CCCN5C[C@H](F)C6)nc4c3F)c12 [Example 671]
94
8. CCc1c(F)ccc2cc(O)cc(-c3ncc4c(N5CCC[C@@](C)(O)C5)nc(OC[C@@]56CCCN5[C@H](COC(=O)N5CCCCC5)CC6)nc4c3F)c12 [Example 721]
92
9. CCc1c(F)ccc2cc(O)cc(-c3ncc4c(N5CCCn6nncc6C5)nc(OC[C@@]56CCCN5C[C@H](F)C6)nc4c3F)c12 [Example 562]
67
10. CCc1c(F)ccc2cc(O)cc(-c3ncc4c(N5CCOCC(C)(O)C5)nc(OCC56CCCN5[C@H](COC(=O)N(C)C)CC6)nc4c3F)c12 (stereo in doubt) [Example 710]
88
11. CCc1c(F)ccc2cc(O)cc(-c3ncc4c(N5CCC[C@]6(CCO6)C5)nc(OCC5(CN(C)C)CC5)nc4c3F)c12 [Example 699]
96
12. CCc1c(F)ccc2cc(O)cc(-c3ncc4c(N5CC6CCC(C5)C6C#N)nc(OC[C@@]56CCCN5C[C@H](F)C6)nc4c3F)c12 (stereo partly drawn) [Example 559]
82
